# Tested on: K-562 leukemia
# protocolNotes: NCI-60 one-dose screen, 48 h
# experimentalContext: 10 µM unless noted
This is part of a sample that, as a whole, favours compounds with a hit. Of some 83,000 tested, about 20% had one in any assay. Active and inactive are the calls of the source. The calls were made as follows: active = growth percent below 10; inactive = the rest.
Pick one: active, inactive

Q. In this assay, the call recorded for COc1cc(C(=O)/C=C/c2c(C(F)(F)F)nc3sccn23)cc(OC)c1OC was what?
A. active

New cases:
Q. Each molecule tested received a call. Report the one for COc1cccc(C(=O)NCCNc2cc(-c3cn(-c4ccccc4)nc3-c3cccc(OC)c3)ccn2)c1 .
A. inactive

Q. Check the results log: what was the call for Cc1cccc(-c2nc(N(C)c3ccc4ncsc4c3)c3ccccc3n2)n1 ?
A. inactive

Q. Identify the outcome logged in this assay for the molecule shown: CCCCC1CCCCN1C(=O)OCC (stereo not given)
A. inactive

Q. Test call for this molecule, please: COc1cc(C2CC(c3cc(OC)c(OCCCOc4ccc(-n5c(/C=C/c6ccccc6)nc6ccccc6c5=O)cc4)c(OC)c3)=NO2)cc(OC)c1OC (stereo not given)
A. inactive

Q. Called result for CC(C)C(=O)Nc1n[nH]c2cc(-c3cccc(NS(=O)(=O)C4CC4)c3)ccc12
A. inactive

---

# System: HS 578T breast
# protocolNotes: NCI-60 one-dose screen, 48 h (100 = growth as untreated, 0 = no growth, -100 = all killed)
# experimentalContext: 10 µM unless noted
About 83,000 compounds went through this panel and 20% of them were active in at least one assay; those are over-represented in the sample as a whole. Active and inactive are the calls of the source. The calls were made as follows: active = growth percent below 10; inactive = the rest.
measuredEndpoint: growth

# lookup: O=C1CCC2=C3C4CCCCC4C(=O)C4CCCC(OC2C1)C34 (stereo not given) on HS 578T breast, growth = 26.5% (inactive)

Bench note, HS 578T breast: entry CCc1ccccc1-n1c(N)c(C#N)c(-c2ccc(N(C)C)cc2)c(C#N)c1=O , its growth = 92.2% (inactive)

The recorded growth with HS 578T breast for CCCCn1c(=O)c2c(nc3n2CCCN3CCc2ccc(OCC(=O)NCCN(CC)CC)cc2)n(CCCC)c1=O was 20.8% (inactive)

Continuing:
HS 578T breast assay, compound COc1cc(/C=N/Nc2ncc(-c3cc4cc5c(cc4o3)OCO5)s2)cc(OC)c1OC , recorded growth = 89.6% (inactive)

Lab note: compound Cn1c2c(c3ccc(Cl)c(Cl)c31)C(C#N)C1(CCNCC1)NC2=O (stereo not given) tested on HS 578T breast; recorded growth was 35.1% (inactive)

---

# System: NCI-H522 lung
# protocolNotes: NCI-60 one-dose screen, 48 h (100 = growth as untreated, 0 = no growth, -100 = all killed)
# experimentalContext: 10 µM unless noted
The panel holds about 83,000 compounds, 20% with a hit somewhere; the sample as a whole holds those more often.
Hi! Could you tag entries with growth below 20% as yes, and those at or above as no? Much appreciated.

// known answers, use as guide
Q. I wonder whether C=C1C(=O)O[C@H]2[C@H]1CC/C(COC(=O)C(=O)c1c[nH]c3ccccc13)=C\CC[C@@]1(C)O[C@@H]21 has growth below 20%. Can you tell?
A. yes

Q. Say whether its growth is strictly beneath 20%. Entry: COc1cc2c(cc1-c1c(C)noc1C)ncc1nc(C3CCCCC3)n(C3CCC(OC(F)F)CC3)c12 (stereo unspecified)
A. yes

Q. Answer whether the molecule COc1ccc2c(c1)O/C(=C\c1cccc(OCC(=O)Nc3nc4ccccc4s3)c1)C2=O has growth strictly less than 20%
A. yes

Q. Lab log: compare recorded growth with 20%; is it strictly lower for O=C(Nc1cccc2c(O)c(N=Nc3ccc(S(=O)(=O)Nc4nccs4)cc3)cc(N=Nc3ccc(S(=O)(=O)Nc4nccs4)cc3)c12)C(Cl)Cl ?
A. yes

Q. For this molecule, is growth lower than 20%? Cc1ccc(NS(=O)(=O)c2ccc3c(c2)C2OCCC2C(c2ccc(C(=O)C(C)C)cc2)N3)cc1C (stereo unspecified)
A. no

Q. Strictly below 20% in growth? COC(=O)[C@]12CC[C@@H](C)[C@H](C)[C@@H]1C1=CC[C@@H]3[C@@]4(C)C(C=O)=C[C@@](C)(COC(C)=O)C4=CC[C@@]3(C)[C@]1(C)CC2
A. yes

Q. In plain terms, does COc1cc(/C=N/Nc2ncc(-c3cc4cc5c(cc4o3)OCO5)s2)cc(OC)c1OC come in under 20% for growth?
A. no

Q. Decide: growth of CC(=O)c1nc(Nc2ccc(C)cc2)sc1C strictly below 20%?
A. no

Q. Please let me know if Cc1nc2ccccc2c(/C=C/c2ccc(Cl)cc2)c1C(=O)/C=C/c1ccc(F)cc1 shows growth below 20%.
A. yes

Q. Record Cc1ccc(NS(=O)(=O)c2ccc3c(c2)C(=O)CC(c2ccc(C(=O)C(C)C)cc2)N3)cc1C (stereo unspecified) : is its growth strictly below 20%?
A. no

***
Q. Find out if reported growth for CN(C)CC1=NC2SC=C(c3ccccc3)C2C(=O)N1CC#N (stereo unspecified) is less than 20%
A. no

Q. Is it true that growth reported for COc1ccc2c(c1)CCCN2c1c2ccccc2nc2ccccc12 is less than 20%?
A. yes

Q. In the record for CC1(C)CC[C@]2(C(=O)N3CCOCC3)CC[C@]3(C)C(=CC[C@@H]4[C@@]5(C)CC[C@H](OC(=O)c6cccnc6)C(C)(C)[C@@H]5CC[C@]43C)[C@@H]2C1 , is growth less than 20%?
A. no

---

# Tested on: DU-145 prostate
# protocolNotes: NCI-60 one-dose screen, 48 h (100 = growth as untreated, 0 = no growth, -100 = all killed)
# experimentalContext: 10 µM unless noted
Compounds without any hit were thinned out: in the full panel of roughly 83,000, 20% have a hit.
measuredEndpoint: growth (%)
Output spec: scalar in %, unitless text.

Here is how some molecules turned out for growth.
Measured growth of Cc1ccc(S(=O)(=O)n2cc(CNc3ccc(N4CCOCC4=O)cc3)c3ccccc32)cc1 : 67.6

response.value for O=c1c2cc(F)ccc2sc2c(NCCCN3CCCC3)nc3ccccc3c12 (field: growth) = 60.1

GET /value?item= COc1cc(/C=N/NC(=O)Cn2c(C(C)C)nc3ccccc32)ccc1O &field=growth returns 110

New cases:
get_value(item= COc1cccc(C(=O)NCCNc2cc(-c3cn(-c4ccccc4)nc3-c3cccc(OC)c3)ccn2)c1 , readout=growth) returns 64

The molecule listed as COc1ccc(C(=NN=C(N)N)c2ccc(OC)cc2)cc1 shows growth equal to 52.8

---

# Test system: RPMI-8226 leukemia
# protocolNotes: NCI-60 one-dose screen, 48 h (100 = growth as untreated, 0 = no growth, -100 = all killed)
# experimentalContext: 10 µM unless noted
The panel holds about 83,000 compounds, 20% with a hit somewhere; the sample as a whole holds those more often.
measuredEndpoint: growth (%)
Number only, in %; omit the unit.

Lab book: growth of N#Cc1c(N2CCNCC2)nc2sc3cc(Cl)c(Cl)cc3n2c1=N noted as 80.2

What the record says about COc1cccc(-c2nn(-c3ccccc3)cc2-c2ccnc(NCCCNC(=O)c3ccc(F)cc3)c2)c1 : growth is 38.2

Measured growth of Cc1cccc(Cc2cnc(NC(=O)/C=C/c3ccco3)s2)c1 : 27.9

N=C1C(c2nc(-c3ccc(Br)cc3)cs2)=C(O)CN1Cc1cccnc1 yielded growth of 70.2

// switching to the query molecule
growth reading for O=c1c2c3c(sc2n2c(-c4cc(-c5ccccc5)nn4-c4ccccc4)nnc2n1Cc1ccccc1)CCCC3 : 14.2

---

# System: RPMI-8226 leukemia
# protocolNotes: NCI-60 one-dose screen, 48 h
# experimentalContext: 10 µM unless noted
Compounds without any hit were thinned out: in the full panel of roughly 83,000, 20% have a hit. Active and inactive are the calls of the source. Rule for the calls: active = growth percent below 10; inactive = the rest.
A correct response names exactly one class from active, inactive

Here are 5 compounds together with their reported answers.
Q. Field: outcome | Entry: COc1cccc(-c2nn(-c3ccccc3)cc2-c2ccnc(NCCNC(=O)Nc3ccccc3)c2)c1
A. inactive

Q. I'd appreciate the recorded outcome for CCN(CC)CCN1CC(O)=C(c2nc(-c3ccc(Cl)cc3)cs2)C1=N from this test.
A. inactive

Q. Hey, what did the test say about Cc1ccc(S(=O)(=O)Oc2cc(OS(=O)(=O)c3ccc(C)cc3)cc(OS(=O)(=O)c3ccc(C)cc3)c2)cc1 ?
A. inactive

Q. Which outcome did this test record for the compound COc1cc(/C=N/Nc2ncc(-c3cc4cc5c(cc4o3)OCO5)s2)cc(OC)c1OC ?
A. active

Q. Call for entry N/C(=N/N=C/c1ccccc1)N/N=C\c1ccccc1 :
A. inactive

***
Q. Status in this test for COc1ccc(S(=O)(=O)NCCNc2nccc(-c3c(-c4cccc(F)c4)nc4sccn34)n2)cc1 ?
A. inactive

Q. Give the logged outcome of this assay for the following compound: NC[C@H](O)c1ccc(O)c(O)c1
A. inactive

Q. # lookup: test call for N#CC1=C(c2ccc(Br)cc2)NC(SCC(=O)c2ccc(Br)cc2)NC1=O (stereo unspecified)
A. inactive

Q. For COc1cc(N=Nc2cc(Cc3ccc(N(C)C)cc3)c(N)cc2N(C)C)c2ncccc2c1 , which call appears in the assay record?
A. active

Q. How did this test come out for O=C1OC(c2nc3ccccc3s2)=C/C1=C\c1ccc(O)cc1 ?
A. inactive

Q. What classification did CC(=O)O[C@]1(C(C)=O)CCC2C3C[C@H](C)C4=CC(=O)CC[C@]4(C)C3CC[C@@]21C (stereo partly specified) end up with in this test?
A. inactive

Q. Query: recorded result category for S=C(Cc1ccc2c(c1)CCCC2)N1CCOCC1 in this test
A. inactive

Q. Outcome? COc1cc2c(cc1-c1c(C)noc1C)ncc1nc(C3CCCCC3)n(C3CCC(OC(F)F)CC3)c12 (stereo unspecified)
A. active

Q. Lab log entry: COc1ccc(-c2nc3ccc4[nH]ncc4c3c3c2CCCC3)cc1B(O)O — outcome as called in the assay?
A. inactive

Q. Which outcome did this test record for the compound COc1ccc(-c2ccc3c(c2)sc2nc(-c4ccc(F)cc4)cn23)cc1 ?
A. inactive

Q. Could you check what this test reported for COc1cccc(-c2nc3sccn3c2/C=C/C(=O)c2ccc(C(F)(F)F)cc2)c1 ?
A. inactive

Q. What call does the record list for COc1ccccc1NC(=O)N/C(N)=N/c1nc2ccccc2s1 ?
A. active

Q. Returns: the outcome recorded for CC1CC2Oc3ccc(Cl)cc3C(=O)N2O1 (stereo unspecified) in this assay.
A. inactive

Q. Dear all, I need the recorded test outcome for CCSC1=NC2C(N(CC)C(=O)N2CC)N1/N=C/C=C/c1ccccc1[N+](=O)[O-] (stereo unspecified) , thank you.
A. inactive

Q. Answer briefly: the call reported for COC(=O)[C@]12CC[C@@H](C)[C@H](C)[C@@H]1C1=CC[C@@H]3[C@@]4(C)C(C=O)=C[C@@](C)(COC(C)=O)[C@@H]4[C@H](O)C[C@@]3(C)[C@]1(C)CC2 in this assay.
A. active
